Biological target: biotinylated HCV core peptide 151-171 (Peptide 3) (HCV-1)
Assay: EIA, captured mAb
Response field class: enum, chosen by comparing Reactivity (OD492) against LOW (below 0.07 OD), MEDIUM (0.07 OD to below 0.1 OD), HIGH (0.1 OD or more)

binder	assigned-category
HCV 208A-1064 (antibody, V domains shown) VH: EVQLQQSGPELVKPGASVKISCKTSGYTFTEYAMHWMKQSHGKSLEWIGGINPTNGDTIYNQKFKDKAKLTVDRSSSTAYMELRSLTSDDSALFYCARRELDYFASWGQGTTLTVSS VL: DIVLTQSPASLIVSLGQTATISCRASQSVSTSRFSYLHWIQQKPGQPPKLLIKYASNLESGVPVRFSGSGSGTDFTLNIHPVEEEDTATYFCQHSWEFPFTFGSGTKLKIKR	HIGH

Record HCV 208A-983 (antibody, V domains shown) VH: QGQMQQSGAELVKPGASVKLSCKTSGFTFSSSYFSWLKQKPGQSLEWIAWIYAGTGNTIYNQKFTDKAQLTVDTASSTAFMQLSSLTIEDSAIYYCAISGTGFTYWGQGTLVTVSA VL: DVLMTQTPLSLPVNLGDQASISCRSSQSLLHSNGNTYLEWFLQKPGQSPKLLIYNVSNRFSGVPDRFSGSGSGTDFTLKISRVEAEDLGVYYCFQGSHVPFTFGSGTKLAIKR — which class?
LOW

Record HCV 208A-293 (antibody, V domains shown) VH: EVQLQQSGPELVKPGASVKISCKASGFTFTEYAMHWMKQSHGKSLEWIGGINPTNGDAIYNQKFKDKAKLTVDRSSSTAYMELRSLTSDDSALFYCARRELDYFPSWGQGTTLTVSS VL: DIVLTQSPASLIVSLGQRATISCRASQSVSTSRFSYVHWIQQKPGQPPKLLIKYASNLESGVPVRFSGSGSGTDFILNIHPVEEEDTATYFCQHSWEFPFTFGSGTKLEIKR — which class?
HIGH

Record HCV 208A-638 (antibody, V domains shown) VH: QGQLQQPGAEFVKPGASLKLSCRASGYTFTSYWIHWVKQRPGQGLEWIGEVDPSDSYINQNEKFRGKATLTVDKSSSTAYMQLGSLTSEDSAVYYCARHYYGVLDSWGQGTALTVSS VL: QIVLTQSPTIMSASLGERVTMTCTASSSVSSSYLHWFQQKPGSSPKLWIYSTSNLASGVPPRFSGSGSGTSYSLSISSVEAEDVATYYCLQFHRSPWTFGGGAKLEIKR — which class?
MEDIUM

Record HCV 208B-515 (antibody, V domains shown) VH: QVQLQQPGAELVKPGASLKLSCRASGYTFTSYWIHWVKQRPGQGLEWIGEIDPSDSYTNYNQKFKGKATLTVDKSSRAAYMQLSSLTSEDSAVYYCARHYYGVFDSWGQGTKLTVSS VL: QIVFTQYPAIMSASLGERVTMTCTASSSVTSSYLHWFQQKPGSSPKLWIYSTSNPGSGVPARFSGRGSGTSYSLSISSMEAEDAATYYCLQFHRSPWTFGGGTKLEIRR — which class?
LOW

Record HCV 208A-222 (antibody, V domains shown) VH: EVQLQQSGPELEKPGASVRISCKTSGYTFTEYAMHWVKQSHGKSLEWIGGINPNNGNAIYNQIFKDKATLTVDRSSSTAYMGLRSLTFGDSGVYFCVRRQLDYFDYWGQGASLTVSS VL: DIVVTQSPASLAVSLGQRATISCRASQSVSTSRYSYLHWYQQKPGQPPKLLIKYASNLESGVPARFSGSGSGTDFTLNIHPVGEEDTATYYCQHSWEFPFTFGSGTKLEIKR — which class?
MEDIUM

Record HCV 208B-1096 (antibody, V domains shown) VH: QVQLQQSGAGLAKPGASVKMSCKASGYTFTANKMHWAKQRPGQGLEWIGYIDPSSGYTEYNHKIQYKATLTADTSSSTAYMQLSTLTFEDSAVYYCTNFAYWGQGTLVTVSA VL: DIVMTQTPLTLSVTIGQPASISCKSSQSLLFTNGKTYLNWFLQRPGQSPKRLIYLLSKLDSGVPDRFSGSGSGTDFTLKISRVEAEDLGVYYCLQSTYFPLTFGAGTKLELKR — which class?
HIGH

Record HCV 208B-327 (antibody, V domains shown) VH: EVQLVESGGGLVKPGGSLKLSCAASGFTFSDSYMYWVRQTPDQRLEWVATISDGGSYTFYPDSVKGRFTISRDNAQNNLYLQMSSLKSEDTAMYYCASPHAGYFGWFAYWGRGTLVTVSA VL: DIVMTQAAFSNPVTPGTSVSISCRSSKSLLHSNGITYLYWYLQKPGQSPQLLIYQMSKIASGVPDRFRSSGSGTDFTLRISRVEAADVGVYYCAQNLELPWTFGGGTKLEIKR — which class?
HIGH
